System: UO-31 renal
Test: NCI-60 one-dose screen, 48 h
Details: 10 µM unless noted
About 83,000 compounds went through this panel and 20% of them were active in at least one assay; those are over-represented in the sample as a whole. The source made the active and inactive calls. The calls were made as follows: active = growth percent below 10; inactive = the rest.
Choose one outcome from this list and give only that: active, inactive

[
  {
    "Compound": "COc1cc2c(c(OC)c1OC)C(=O)N[C@@H]1[C@@H](O)[C@@H](O)[C@H](O)C[C@@H]21",
    "Assigned category": "inactive"
  },
  {
    "Compound": "Cc1ccc(/C=C2\\CN(C(=O)C(Cl)Cl)C/C(=C\\c3ccc(C)cc3)C2=O)cc1",
    "Assigned category": "active"
  },
  {
    "Compound": "COc1ccc(NC(=O)c2sc3nc(C)c(C(O)c4ccccc4)cc3c2N)cc1 (stereo not drawn)",
    "Assigned category": "inactive"
  },
  {
    "Compound": "O=C1NC(=Nc2ccc(O)cc2)S/C1=C\\c1cccs1",
    "Assigned category": "inactive"
  },
  {
    "Compound": "COCC[C@H]1CCC/C=C/[C@@H]2C[C@H](O)C[C@H]2[C@H](O)/C=C/C(=O)O1",
    "Assigned category": "inactive"
  }
]

In this assay, the call recorded for CC(C)CN1CC(C(=O)Nc2ccc3c(c2)-c2ccccc2C3)CC1=O (stereo not drawn) was what?
inactive

Check the results log: what was the call for C[C@H]1[C@H](C)CC[C@]2(C(=O)O)CC[C@]3(C)C(=CC[C@@H]4[C@@]5(C)C[C@@H](Cc6cn([C@@H]7O[C@H](CO)[C@@H](O)[C@H](O)[C@H]7O)nn6)[C@H](O)C(C)(C)[C@@H]5CC[C@]43C)[C@H]12 ?
inactive

What was the test verdict on O=c1[nH]cnc2c1C(c1ccc(Br)cc1)c1sc3c(F)cccc3c1O2 (stereo not drawn) ?
inactive

For S=c1[nH]c2cc(Cl)ccc2o1 , which call appears in the assay record?
inactive

Recorded test outcome, item CCN=C1C=CC(=C(c2ccc(N(C)C)cc2)c2ccc(N(C)C)cc2)c2ccccc21
active

Field: outcome | Entry: CCCCCCCC/C=C\CCCCCCCCOc1ccc(CC(=O)NCC[N+](C)(C)C)cc1
inactive

Could you kindly confirm the outcome this assay logged for CCOC(=O)C1=C(C)N=C2SC=C(c3ccccc3)N2[C@H]1c1cn[nH]c1-c1ccc(Cl)cc1 ?
active

What is the recorded call for this compound in the test? FC(F)(F)c1[nH]ncc1-c1nc2c(N3CCCCC3)cc3[nH]ncc3c2c2c1CCCC2
active

Which result was noted for this compound in the test: C#CCOc1ccc2ncnc(Nc3cccc(NC(=O)CCl)c3)c2c1
inactive

Dear all, I need the recorded test outcome for CN(C)c1ccc(-c2cc(-c3ccc(Nc4nc(Nc5ccc(Cl)cc5)nc(Nc5ccc(Cl)cc5)n4)cc3)nc(N)c2C#N)cc1 , thank you.
inactive

For N#C/C(=C\c1ccc(Cl)cc1Cl)C(=O)Nc1ncc(Cc2ccc(Cl)c(Cl)c2)s1 , which call appears in the assay record?
inactive

Give the logged outcome of this assay for the following compound: Nc1c(C(=O)O)cc(Cl)cc1[N+](=O)[O-]
inactive

Which outcome was entered for the compound O=C(Nc1nc(C(=O)N2CCN(C(c3ccccc3)c3ccccc3)CC2)cs1)c1ccc(NC2CCCCC2)c([N+](=O)[O-])c1 in this test?
inactive

###

Test system: OVCAR-8 ovarian
Assay: NCI-60 one-dose screen, 48 h (100 = growth as untreated, 0 = no growth, -100 = all killed)
Conditions: 10 µM unless noted
This is part of a sample that, as a whole, favours compounds with a hit. Of some 83,000 tested, about 20% had one in any assay.
Readout type: growth (%)
// return numeric value only (unit: %, not printed)

[
  {
    "Compound": "CCn1cc(C(=O)NN=C2CCCCCC2)c(=O)c2ccc(C)nc21",
    "Measurement target": "OVCAR-8 ovarian",
    "Readout type": "growth",
    "Measured value": 92.5
  },
  {
    "Compound": "COc1cc2ncnc(Nc3ccc(F)c(Cl)c3)c2cc1OCC(=O)N1CCN(c2ccc(F)cc2)CC1",
    "Measurement target": "OVCAR-8 ovarian",
    "Readout type": "growth",
    "Measured value": 107
  },
  {
    "Compound": "CNCc1cccc2c1OCCOCCN(C)C(=O)CN(C)S(=O)(=O)c1ccc(cc1)-c1cnc(N)c(n1)C(=O)N2",
    "Measurement target": "OVCAR-8 ovarian",
    "Readout type": "growth",
    "Measured value": 2.03
  },
  {
    "Compound": "O=C(/C=C/C12c3ccccc3C(c3ccccc31)C1C(=O)NC(=O)C12)c1ccccn1 (stereo not drawn)",
    "Measurement target": "OVCAR-8 ovarian",
    "Readout type": "growth",
    "Measured value": 1.98
  },
  {
    "Compound": "C[C@@H]1O[C@@H](O[C@@H]2C[C@H](c3ccc4c(c3O)C(=O)C3=C(C4=O)[C@@]4(O)C(=O)C[C@](C)(O)C[C@@]4(O)C=C3)O[C@H](C)[C@H]2O)C[C@H](O)[C@@H]1O",
    "Measurement target": "OVCAR-8 ovarian",
    "Readout type": "growth",
    "Measured value": 96.7
  }
]

Check the records and state growth for C=CCN=C(N)SCCCCCCSC(N)=NCC=C
94.6

Tell me measured growth for CCCCCCCCn1ccc2cc(NC(=O)Cn3cc(CN4CCCCCC4)nn3)ccc21 please.
30

Tell us which growth value is on record for Cn1cccc1/C=C1\C(=O)Nc2ccccc21
107

###

Test system: SR leukemia
Assay: NCI-60 one-dose screen, 48 h (100 = growth as untreated, 0 = no growth, -100 = all killed)
Conditions: 10 µM unless noted
Compounds without any hit were thinned out: in the full panel of roughly 83,000, 20% have a hit.
Readout type: growth (%)
State just the number; it will be interpreted in %.

Completed entries (count: 9):
[
  {
    "Compound": "CC/C=C1/C(=O)C=C[C@@H]1C/C=C\\CCCC(=O)OC",
    "Unit of measure": "%",
    "growth": 4.16
  },
  {
    "Compound": "COc1ccc(-c2cc(-c3cc(OC)c(OC)c(OC)c3)c(C#N)c(=O)n2CCCCCC(=O)NO)cc1",
    "Unit of measure": "%",
    "growth": 78.2
  },
  {
    "Compound": "O=C(CCC(=O)c1nc2ncccc2[nH]1)NN1C(=O)CSC1c1ccc(Cl)cc1 (stereo not given)",
    "Unit of measure": "%",
    "growth": 55.9
  },
  {
    "Compound": "CCc1cccc(Sc2cc(C(=O)N3Cc4ccc(OCCN(C)C)cc4C3)ccc2O)c1",
    "Unit of measure": "%",
    "growth": 19.9
  },
  {
    "Compound": "C#CCOc1cccc(-c2ncc3cc(NC(=O)CCl)ccc3n2)c1",
    "Unit of measure": "%",
    "growth": -28.2
  },
  {
    "Compound": "C#CC#CC#CC#CC#CC#CC#CC#CC[C@H]1OC[C@@H](COC(=O)O[C@@H](C(=O)O[C@H]2C[C@@]3(O)[C@@H](OC(=O)c4ccccc4)[C@@H]4[C@]5(OC(C)=O)CO[C@@H]5C[C@H](O)[C@@]4(C)C(=O)[C@H](OC(C)=O)C(=C2C)C3(C)C)[C@@H](NC(=O)c2ccccc2)c2ccccc2)O1",
    "Unit of measure": "%",
    "growth": 25.9
  },
  {
    "Compound": "CCCCSCC(=O)c1ccccc1",
    "Unit of measure": "%",
    "growth": 88.3
  },
  {
    "Compound": "COC(=O)c1nc(-c2ccccc2)oc1S(=O)(=O)N1CCC(C(N)=O)CC1",
    "Unit of measure": "%",
    "growth": -3.16
  },
  {
    "Compound": "Clc1nn2c(Cn3cnc4c(NCc5ccccc5)ncnc43)nnc2c2ccccc12",
    "Unit of measure": "%",
    "growth": 17.2
  }
]

Now, please, on to the next compound.
Using known records, supply growth for Cn1cc(-c2csc(-c3cn(C(=O)OC(C)(C)C)c4ccccc34)n2)c2ccnc(Cl)c21
26

###

System: RPMI-8226 leukemia
Test: NCI-60 one-dose screen, 48 h
Conditions: 10 µM unless noted
This is part of a sample that, as a whole, favours compounds with a hit. Of some 83,000 tested, about 20% had one in any assay. Activity calls are given as the source filed them. The calls were made as follows: active = growth percent below 10; inactive = the rest.
Classes to choose from: yes (active), no (inactive)

Here are 3 molecules together with their reported answers.
[
  {
    "Molecule": "CCOC(=O)c1c2c(n3c1NCC3)-c1ccccc1C2=O",
    "Measurement target": "RPMI-8226 leukemia",
    "Assigned category": "no"
  },
  {
    "Molecule": "CCCCCCCCn1ccc2cc(NC(=O)Cn3cc(CN4CCN(CC)CC4)nn3)ccc21",
    "Measurement target": "RPMI-8226 leukemia",
    "Assigned category": "yes"
  },
  {
    "Molecule": "COc1cc(C(=O)/C=C/c2ccc(N3CCN(C)CC3)cc2)cc(OC)c1OC",
    "Measurement target": "RPMI-8226 leukemia",
    "Assigned category": "no"
  }
]

Would you mind telling me which call this test gave CC(C)C[C@@H](C(=O)N[C@H](C(=O)OC1CCCC1)c1ccccc1)[C@H](O)C(=O)NO ?
no

Identify the outcome logged in this assay for the molecule shown: Clc1ccc(-c2cn3ccsc3n2)c(Cl)c1Cl
no

The reported numbers originate from PubChem BioAssay (NCI).
